# system.tested: P70S6K (T412E mutant, Millipore) (Homo sapiens, UniProt P23443, T412E)
# Sequence (P23443 whole entry T412E): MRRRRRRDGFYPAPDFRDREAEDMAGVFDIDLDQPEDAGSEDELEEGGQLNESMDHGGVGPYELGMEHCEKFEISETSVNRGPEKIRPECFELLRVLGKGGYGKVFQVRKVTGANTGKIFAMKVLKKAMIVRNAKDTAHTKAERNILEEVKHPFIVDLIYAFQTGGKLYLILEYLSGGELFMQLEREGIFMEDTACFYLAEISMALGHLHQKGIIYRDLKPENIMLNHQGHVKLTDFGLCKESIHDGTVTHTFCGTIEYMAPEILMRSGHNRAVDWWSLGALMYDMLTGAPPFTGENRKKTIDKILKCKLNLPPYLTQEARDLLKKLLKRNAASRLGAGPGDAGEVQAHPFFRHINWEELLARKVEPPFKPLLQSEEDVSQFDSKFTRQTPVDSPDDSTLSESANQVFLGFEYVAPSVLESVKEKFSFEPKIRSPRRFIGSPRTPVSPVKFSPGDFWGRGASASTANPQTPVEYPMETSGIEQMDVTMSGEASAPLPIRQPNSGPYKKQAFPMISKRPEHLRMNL
# measurement.notes: P70S6K enzyme assay
# experimental.conditions: enzyme inhibition; 24 μM ATP, 90 min at 25° C., Caliper mobility shift
pIC50: −log10 of the molar value.
measurement.type: pIC50

Below, 7 compounds whose answers are already recorded.
[[record]]
compound = "O=C1CNc2ncnc(N3CCC(c4nc(-c5ccc(F)cc5)cn4CCN4CCCC4)CC3)c2N1 [Compound A59]"
measurement_type = "pIC50"
reading = "7.00 to 7.59"

[[record]]
compound = "O=C1CNc2ncnc(N3CCC(c4nc(-c5ccccc5)cn4CCN4CCCC4)CC3)c2N1 [Compound A45]"
measurement_type = "pIC50"
reading = "6.30 to 7.00"

[[record]]
compound = "COc1cccc(-c2cn(CCN3CCCC3)c(C3CCN(c4ncnc5c4NC(=O)CN5)CC3)n2)c1 [Compound A60]"
measurement_type = "pIC50"
reading = "6.30 to 7.00"

[[record]]
compound = "Cc1cc(-c2cn(CCN3CCC3)c(C3CCN(c4ncnc5c4OCCN5)CC3)n2)ccc1F [Compound A11]"
measurement_type = "pIC50"
reading = "> 7.60"

[[record]]
compound = "O=C1CNc2ncnc(N3CCC(c4nc(-c5ccc(F)c(C(F)(F)F)c5)cn4CCN4CCCC4)CC3)c2N1 [Compound A39]"
measurement_type = "pIC50"
reading = "> 7.60"

[[record]]
compound = "Fc1ccc(-c2cn(CCN3CCC3)c(C3CCN(c4ncnc5c4CCCN5)CC3)n2)cc1Cl [Compound A38]"
measurement_type = "pIC50"
reading = "> 7.60"

[[record]]
compound = "CN(C)CCn1cc(-c2ccnc(C(F)(F)F)c2)nc1C1CCN(c2ncnc3c2CCC3)CC1 [Compound A18]"
measurement_type = "pIC50"
reading = "7.00 to 7.59"


Need pIC50, item Fc1ccc(-c2cn(CCN3CCC3)c(C3CCN(c4ncnc5c4CCC5)CC3)n2)cc1C(F)(F)F [Compound A20]
> 7.60

----------
# system.tested: P70S6K (T412E mutant, Millipore) (Homo sapiens, UniProt P23443, T412E)
# measurement.notes: P70S6K enzyme assay
# experimental.conditions: enzyme inhibition; 24 μM ATP, 90 min at 25° C., Caliper mobility shift
pIC50: −log10 of the molar value.
measurement.type: pIC50

Below, 3 compounds whose answers are already recorded.
[[record]]
compound = "FC(F)(F)c1cc(-c2cn(CCN3CCC3)c(C3CCN(c4ncnc5c4CCC5)CC3)n2)ccn1 [Compound A23]"
reading = "> 7.60"

[[record]]
compound = "Cc1cccc(-c2cn(CCN(C)C)c(C3CCN(c4ncnc5c4NC(=O)CN5)CC3)n2)c1 [Compound A54]"
reading = "7.00 to 7.59"

[[record]]
compound = "COc1cc(-c2cn(CCN(C)C)c(C3CCN(c4ncnc5c4CCN5)CC3)n2)ccc1F [Compound A25]"
reading = "> 7.60"


Need pIC50, item COc1cccc(-c2cn(CCN(C)C)c(C3CCN(c4ncnc5c4NC(=O)CN5)CC3)n2)c1 [Compound A51]
6.30 to 7.00

Here is the next compound: CN(C)CCn1cc(-c2ccc(F)c(C(F)(F)F)c2)nc1C1CCN(c2ncnc3c2NC(=O)CN3)CC1 [Compound A41]
> 7.60

Here is the next compound: COc1cc(-c2cn(CCN(C)C)c(C3CCN(c4ncnc5c4CCC5)CC3)n2)ccc1F [Compound A16]
> 7.60

Here is the next compound: Cc1cc(-c2cn(CCN(C)C)c(C3CCN(c4ncnc5c4CCC5)CC3)n2)ccc1F [Compound A15]
> 7.60

Here is the next compound: CN(C)CCn1cc(-c2ccc(F)c(C(F)(F)F)c2)nc1C1CCN(c2ncnc3c2OCCN3)CC1 [Compound A6]
> 7.60

Here is the next compound: O=C1CNc2ncnc(N3CCC(c4nc(-c5ccnc(C6CC6)c5)cn4CCN4CCC4)CC3)c2N1 [Compound A44]
> 7.60

----------
# system.tested: P70S6K (T412E mutant, Millipore) (Homo sapiens, UniProt P23443, T412E)
# measurement.notes: P70S6K enzyme assay
# experimental.conditions: enzyme inhibition; 24 μM ATP, 90 min at 25° C., Caliper mobility shift
pIC50: −log10 of the molar value.
The following compounds are listed with their measured pIC50 values.

[[record]]
smiles_input = "CN(C)CCn1cc(-c2ccc(F)c(C(F)(F)F)c2)nc1C1CCN(c2ncnc3c2CCC3)CC1"
reading = "> 7.60"

[[record]]
smiles_input = "CN(C)CCn1cc(-c2ccc(F)c(C(F)(F)F)c2)nc1C1CCN(c2ncnc3c2CCN3)CC1"
reading = "> 7.60"

[[record]]
smiles_input = "CN(C)CCn1cc(-c2ccnc(C(F)(F)F)c2)nc1C1CCN(c2ncnc3c2OCCN3)CC1"
reading = "> 7.60"

[[record]]
smiles_input = "Cc1cc(-c2cn(CCN3CCC3)c(C3CCN(c4ncnc5c4CCC5)CC3)n2)ccc1F"
reading = "> 7.60"

[[record]]
smiles_input = "O=C1CNc2ncnc(N3CCC(c4nc(-c5ccc(F)c(F)c5)cn4CCN4CCCC4)CC3)c2N1"
reading = "7.00 to 7.59"


Need pIC50, item Cc1cc(-c2cn(CCN(C)C)c(C3CCN(c4ncnc5c4CCN5)CC3)n2)ccc1F
> 7.60

Here is the next compound: CN(C)CCn1cc(-c2ccc(F)c(Cl)c2)nc1C1CCN(c2ncnc3c2CCN3)CC1
> 7.60

Here is the next compound: Cc1cc(-c2cn(CCN3CCC3)c(C3CCN(c4ncnc5c4CCN5)CC3)n2)ccc1F
> 7.60

Here is the next compound: FC(F)(F)c1cc(-c2cn(CCN3CCC3)c(C3CCN(c4ncnc5c4CCN5)CC3)n2)ccn1
> 7.60

Here is the next compound: Cc1cc(-c2cn(CCN3CCC3)c(C3CCN(c4ncnc5c4NC(=O)CN5)CC3)n2)ccc1F
> 7.60

----------
# system.tested: UniProt P31749
# Sequence (P31749 whole entry): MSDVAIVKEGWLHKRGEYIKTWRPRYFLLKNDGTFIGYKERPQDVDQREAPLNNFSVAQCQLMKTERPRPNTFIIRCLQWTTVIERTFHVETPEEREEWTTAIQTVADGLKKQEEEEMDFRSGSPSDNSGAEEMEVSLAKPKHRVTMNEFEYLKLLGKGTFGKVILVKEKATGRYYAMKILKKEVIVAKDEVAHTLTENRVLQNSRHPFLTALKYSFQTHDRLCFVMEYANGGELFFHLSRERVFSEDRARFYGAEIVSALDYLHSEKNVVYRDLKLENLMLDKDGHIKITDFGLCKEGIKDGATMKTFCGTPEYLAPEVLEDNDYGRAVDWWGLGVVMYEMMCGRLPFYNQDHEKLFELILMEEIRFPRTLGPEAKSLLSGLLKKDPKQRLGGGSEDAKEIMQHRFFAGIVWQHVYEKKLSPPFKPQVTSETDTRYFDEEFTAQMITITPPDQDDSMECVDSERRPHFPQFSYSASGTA
measurement.type: IC50

Below, 5 compounds whose answers are already recorded.
[[record]]
smiles_input = "O=C1CNc2ncnc(N3CCC(c4nc(-c5ccnc(C6CC6)c5)cn4CCN4CCC4)CC3)c2N1"
system_tested = "UniProt P31749"
measurement_type = "IC50"
reading = "101 to 500 nM"

[[record]]
smiles_input = "CN(C)CCn1cc(-c2ccnc(C(F)(F)F)c2)nc1C1CCN(c2ncnc3c2CCC3)CC1"
system_tested = "UniProt P31749"
measurement_type = "IC50"
reading = "101 to 500 nM"

[[record]]
smiles_input = "Cc1cccc(-c2cn(CCN(C)C)c(C3CCN(c4ncnc5c4NC(=O)CN5)CC3)n2)c1"
system_tested = "UniProt P31749"
measurement_type = "IC50"
reading = "101 to 500 nM"

[[record]]
smiles_input = "CN(C)CCn1cc(-c2ccnc(C(F)(F)F)c2)nc1C1CCN(c2ncnc3c2OCCN3)CC1"
system_tested = "UniProt P31749"
measurement_type = "IC50"
reading = "26 to 100 nM"

[[record]]
smiles_input = "CN(C)CCn1cc(-c2ccc(F)c(Cl)c2)nc1C1CCN(c2ncnc3c2CCC3)CC1"
system_tested = "UniProt P31749"
measurement_type = "IC50"
reading = "26 to 100 nM"


Need IC50, item O=C1CNc2ncnc(N3CCC(c4nc(C(F)(F)F)cn4CCN4CCCC4)CC3)c2N1
> 1000 nM

Here is the next compound: CN(C)CCn1cc(-c2ccnc(C(F)(F)F)c2)nc1C1CCN(c2ncnc3c2CCN3)CC1
26 to 100 nM

----------
# system.tested: P70S6K (T412E mutant, Millipore) (Homo sapiens, UniProt P23443, T412E)
# measurement.notes: P70S6K enzyme assay
# experimental.conditions: enzyme inhibition; 24 μM ATP, 90 min at 25° C., Caliper mobility shift
pIC50: −log10 of the molar value.
The following molecules are listed with their measured pIC50 values.

Below, 5 molecules whose answers are already recorded.
[[record]]
smiles_input = "Fc1ccc(-c2cn(CCN3CCC3)c(C3CCN(c4ncnc5c4CCN5)CC3)n2)cc1Cl"
measurement_type = "pIC50"
reading = "> 7.60"

[[record]]
smiles_input = "CN(C)CCn1cc(-c2ccc(F)cc2)nc1C1CCN(c2ncnc3c2NC(=O)CN3)CC1"
measurement_type = "pIC50"
reading = "6.30 to 7.00"

[[record]]
smiles_input = "O=C1CNc2ncnc(N3CCC(c4nc(C(F)(F)F)cn4CCN4CCCC4)CC3)c2N1"
measurement_type = "pIC50"
reading = "< 6.00"

[[record]]
smiles_input = "Fc1ccc(-c2cn(CCN3CCC3)c(C3CCN(c4ncnc5c4OCCN5)CC3)n2)cc1Cl"
measurement_type = "pIC50"
reading = "> 7.60"

[[record]]
smiles_input = "O=C1CNc2ncnc(N3CCC(c4nc(-c5ccnc(C(F)(F)F)c5)cn4CCN4CCC4)CC3)c2N1"
measurement_type = "pIC50"
reading = "> 7.60"


Need pIC50, item FC(F)(F)c1cc(-c2cn(CCN3CCC3)c(C3CCN(c4ncnc5c4OCCN5)CC3)n2)ccn1
> 7.60

Here is the next molecule: Cc1cccc(-c2cn(CCN3CCCC3)c(C3CCN(c4ncnc5c4NC(=O)CN5)CC3)n2)c1
7.00 to 7.59
